Molecular target: PchA, EntC, and Irp9
Experiment: Dissociation constants by intrinsic fluorescence
Conditions: read-out: Kd of E·Mg complexes (range over all three enzymes)
pKd: −log10 of the molar value.
Measured Endpoint: pKd

Lab note: [Cl-].[Cl-].[Mg+2] [magnesium, magnesium chloride] gave pKd of 3.72 to 3.89

Attribution: paper PMC5029964
